# key: entry, value: Activity
assay.system: 5-hydroxytryptamine receptor 5A (Homo sapiens)
experiment.notes: Agonist activity at recombinant human 5-HT5A at 10 uM by aequorin reporter based assay relative to agonist
Format: functional

mol: CN(CCCNC(=O)c1ccc([N+](=O)[O-])cc1)Cc1ccccc1
Activity: -1%
--
mol: CN(CCNC(=O)c1ccc(C#N)cc1)Cc1ccccc1
Activity: -7%
--
mol: CN(CCCNC(=O)c1ccc(Cl)cc1)CCc1ccccc1
Activity: 0%
--
mol: CN(CCNC(=O)c1ccc(Cl)cc1)Cc1ccccc1
Activity: -1%
--
mol: CN(CCNC(=O)c1ccc([N+](=O)[O-])cc1)Cc1ccccc1
Activity: -9%
--
mol: CN(CCCNC(=O)c1cccc(Br)c1)Cc1ccccc1
Activity: -1%
--
mol: COc1cccc(C(=O)NCCCN(C)Cc2ccccc2)c1
Activity: -3%
--
mol: COc1ccc(C(=O)NCCCN(C)Cc2ccccc2)cc1
Activity: -5%
--
mol: CN(CCCNC(=O)c1ccc(Cl)cc1)Cc1ccccc1
Activity: 0%
--
mol: CN(CCCNC(=O)c1ccc(C(F)(F)F)cc1)Cc1ccccc1
Activity: -1%
--
mol: CN(CCCNC(=O)c1ccc(Br)cc1)Cc1ccccc1
Activity: 1%
--
mol: CCCc1ccc(C(=O)NCCCN(C)Cc2ccccc2)cc1
Activity: 0%
